These data points were gathered from patent US8530462B2.

- Assayed System: human S1P1 receptor (Homo sapiens, UniProt P21453)
- Construct: expressed in transfected cells; membranes were used
- Sequence (P21453 whole entry): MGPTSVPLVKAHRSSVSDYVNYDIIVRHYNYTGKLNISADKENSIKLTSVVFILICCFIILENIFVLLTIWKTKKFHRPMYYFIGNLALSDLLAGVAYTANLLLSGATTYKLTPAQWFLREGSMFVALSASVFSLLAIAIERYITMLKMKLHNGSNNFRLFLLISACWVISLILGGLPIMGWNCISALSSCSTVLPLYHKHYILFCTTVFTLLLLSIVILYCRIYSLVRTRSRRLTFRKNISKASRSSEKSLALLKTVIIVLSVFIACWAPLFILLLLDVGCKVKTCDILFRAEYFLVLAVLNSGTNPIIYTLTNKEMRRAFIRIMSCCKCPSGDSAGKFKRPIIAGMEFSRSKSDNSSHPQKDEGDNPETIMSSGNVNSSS
- Protocol Notes: GTP γ35S binding assay, S1P1 receptor activity
- Assay type: biochemical
- Applied Conditions: S1P1 receptor, agonist-induced stimulation
Measurement Kind: % stimulation (%)

Entry COc1ccc2c(c1)c(-c1nc(-c3ccc(CN4CC(C(=O)O)C4)cc3)no1)c(C)n2Cc1ccc(C)c(C)c1 ; % stimulation = 82

Entry O=C(O)C1CN(Cc2ccc(-c3noc(-c4cn(Cc5ccccc5)c5ccccc45)n3)cc2)C1 ; % stimulation = 66

Entry Cc1ccc2c(c1)c(-c1nc(-c3ccc(CN4CC(C(=O)O)C4)cc3)no1)cn2Cc1ccc(C)c(C)c1 ; % stimulation = 92

Entry Cc1ccc(Cn2cc(-c3nc(-c4ccc(CNCCC(=O)O)cc4)no3)c3cc(F)ccc32)cc1C ; % stimulation = 93

Entry Cc1ccc2c(c1)c(-c1nc(-c3ccc(CNCCC(=O)O)cc3)no1)cn2Cc1ccc(C)c(C)c1 ; % stimulation = 82

Entry O=C(O)C1CN(Cc2ccc(-c3noc(-c4cn(Cc5ccccc5)c5ccc(F)cc45)n3)cc2)C1 ; % stimulation = 91

* * *

- Assayed System: human S1P1 receptor (Homo sapiens, UniProt P21453)
- Construct: expressed in transfected cells; membranes were used
- Protocol Notes: GTP γ35S binding assay, S1P1 receptor activity
- Format: biochemical
- Applied Conditions: S1P1 receptor, agonist-induced stimulation
- Experimental: The S1P1 activity of the compounds according to the invention, were tested using the GTP γ^35S binding assay. The compounds were assessed for their ability to activate or block activation of the human S1P1 receptor in cells stably expressing the S1P1 receptor. GTP γ^35S binding was measured in the medium containing (mM) HEPES 25, pH 7.4, MgCl2 10, NaCl 100, dithitothreitol 0.5, digitonin 0.003%, 0.2 nM GTP γ^35S, and 5 μg membrane protein in a volume of 150 μl. […]
Measurement Kind: % stimulation (%)

Entry c1ccc(Cn2cc(-c3nc(-c4ccc(Cn5ccnc5)cc4)no3)c3ccccc32)cc1 ; % stimulation = 86

Entry Cc1ccc(Cn2cc(-c3nc(-c4ccc(CNCCC(=O)O)cc4)no3)c3ccccc32)cc1C ; % stimulation = 81

Entry O=C(O)CCNCc1ccc(-c2noc(-c3cn(Cc4ccccc4)c4ccc(F)cc34)n2)cc1 ; % stimulation = 100

Entry Cc1ccc(Cn2cc(-c3nc(-c4ccc(CN5CC(C(=O)O)C5)cc4)no3)c3cc(F)ccc32)cc1C ; % stimulation = 94

Entry Cc1ccc(Cn2cc(-c3nc(-c4ccc(CN5CC(C(=O)O)C5)cc4)no3)c3ccccc32)cc1C ; % stimulation = 92

Entry O=C(O)CCCCNCc1ccc(-c2noc(-c3cn(Cc4ccccc4)c4ccccc34)n2)cc1 ; % stimulation = 108

Entry CNc1ncccc1-c1noc(-c2cn(Cc3ccccc3)c3ccccc23)n1 ; % stimulation = 88

Entry Cc1ccc(Cn2c(C)c(-c3nc(-c4ccc(CN5CC(C(=O)O)C5)cc4)no3)c3cc(F)ccc32)cc1C ; % stimulation = 85

* * *

- Assayed System: human S1P1 receptor (Homo sapiens, UniProt P21453)
- Construct: membranes were used
- Protocol Notes: GTP γ35S binding assay, S1P1 receptor activity
- Applied Conditions: membranes of cells stably expressing the S1P1 receptor, test compounds 0.08 to 5,000 nM
pEC50: −log10 of the molar value.
Measurement Kind: pEC50

Answered cases to consult:
// pEC50 (human S1P1 receptor (Homo sapiens, UniProt P21453)) for Cc1ccc(Cn2cc(-c3nc(-c4ccc(CNCCC(=O)O)cc4)no3)c3cc(F)ccc32)cc1C = 5.83

// pEC50 (human S1P1 receptor (Homo sapiens, UniProt P21453)) for O=C(O)CCCCNCc1ccc(-c2noc(-c3cn(Cc4ccccc4)c4ccccc34)n2)cc1 = 5.99

// pEC50 (human S1P1 receptor (Homo sapiens, UniProt P21453)) for O=C(O)CCNCc1ccc(-c2noc(-c3cn(Cc4ccccc4)c4ccccc34)n2)cc1 = 6.40

// pEC50 (human S1P1 receptor (Homo sapiens, UniProt P21453)) for Cc1ccc(Cn2cc(-c3nc(-c4ccc(CN5CC(C(=O)O)C5)cc4)no3)c3ccccc32)cc1C = 5.99

// pEC50 (human S1P1 receptor (Homo sapiens, UniProt P21453)) for c1ccc(Cn2cc(-c3nc(-c4ccc(Cn5ccnc5)cc4)no3)c3ccccc32)cc1 = 5.94

(1) O=C(O)CCNCc1ccc(-c2noc(-c3cn(Cc4ccccc4)c4ccc(F)cc34)n2)cc1
(2) O=C(O)C1CN(Cc2ccc(-c3noc(-c4cn(Cc5ccccc5)c5ccccc45)n3)cc2)C1
(3) Cc1ccc(Cn2cc(-c3nc(-c4ccc(CNCCC(=O)O)cc4)no3)c3ccccc32)cc1C
// sort entries: pEC50, high to low Response format: the labels, sorted as the prompt asks.
1, 2, 3
(1: 6.89, 2: 6.31, 3: 5.84)

(I) CNc1ncccc1-c1noc(-c2cn(Cc3ccccc3)c3ccccc23)n1
(II) O=C(O)C1CN(Cc2ccc(-c3noc(-c4cn(Cc5ccccc5)c5ccc(F)cc45)n3)cc2)C1
In terms of reported pEC50, does I or II have the smaller number? # answer = label of selected item
I
(I: 6.15, II: 6.72)
